pKd for assorted compounds
# Test: Displacement of calixarene-LCG from synthetic H3K27 peptide
pKd: −log10 of the molar value.

| Mol smiles | Comparison operator | pKd |
| --- | --- | --- |
| COc1cccc(-c2cc3c(O)c(c2)Cc2cc(S(=O)(=O)O)cc(c2O)Cc2cc(S(=O)(=O)O)cc(c2O)Cc2cc(S(=O)(=O)O)cc(c2O)C3)c1OC | = | 4.60 |
| COc1ccc(-c2cc3c(O)c(c2)Cc2cc(S(=O)(=O)O)cc(c2O)Cc2cc(S(=O)(=O)O)cc(c2O)Cc2cc(S(=O)(=O)O)cc(c2O)C3)cc1 | = | 4.70 |
| NC(=O)c1ccc(-c2cc3c(O)c(c2)Cc2cc(S(=O)(=O)O)cc(c2O)Cc2cc(S(=O)(=O)O)cc(c2O)Cc2cc(S(=O)(=O)O)cc(c2O)C3)cc1 | = | 4.64 |
| O=[N+]([O-])c1cc2c(O)c(c1)Cc1cc(S(=O)(=O)O)cc(c1O)Cc1cc(S(=O)(=O)O)cc(c1O)Cc1cc(S(=O)(=O)O)cc(c1O)C2 | = | 4.52 |
| N#Cc1ccc(-c2cc3c(O)c(c2)Cc2cc(S(=O)(=O)O)cc(c2O)Cc2cc(S(=O)(=O)O)cc(c2O)Cc2cc(S(=O)(=O)O)cc(c2O)C3)cc1 | = | 4.95 |
| O=S(=O)(O)c1cc2c(O)c(c1)Cc1cc(S(=O)(=O)O)cc(c1O)Cc1cc(S(=O)(=O)O)cc(c1O)Cc1cc(-c3ccccc3)cc(c1O)C2 | = | 4.72 |
| O=S(=O)(O)c1cc2c(O)c(c1)Cc1cc(S(=O)(=O)O)cc(c1O)Cc1cc(S(=O)(=O)O)cc(c1O)Cc1cc(S(=O)(=O)O)cc(c1O)C2 | = | 3.66 |
| Cc1ccc(S(=O)(=O)Nc2cc3c(O)c(c2)Cc2cc(S(=O)(=O)O)cc(c2O)Cc2cc(S(=O)(=O)O)cc(c2O)Cc2cc(S(=O)(=O)O)cc(c2O)C3)cc1 | < | 4.00 |
| Cc1ccc(-c2cc3c(O)c(c2)Cc2cc(S(=O)(=O)O)cc(c2O)Cc2cc(S(=O)(=O)O)cc(c2O)Cc2cc(S(=O)(=O)O)cc(c2O)C3)cc1 | = | 5.57 |
| O=S(=O)(O)c1cc2c(O)c(c1)Cc1cc(S(=O)(=O)O)cc(c1O)Cc1cc(S(=O)(=O)O)cc(c1O)Cc1cc(Br)cc(c1O)C2 | = | 4.88 |
